meta.source: ChEMBL document CHEMBL4007503

assay: Competitive inhibition of soybean 15-LOX using linoleic acid as substrate by Lineweaver-Burk plot analysis; parameters: species or system Glycine max
RECORDED_ENDPOINT: pKi
Formally, pKi is defined as -log10 of the concentration c, with c in mol/L.

{"CHEMICAL_STRING": "Cc1ccc(NNC(=O)c2ccccc2)cc1", "ASSAY_RESULT": 6.09}

Turning now to a further compound:
// query Read the entry N#Cc1ccc(/N=N/C(=O)c2ccccc2)cc1 and write its reported pKi.
// result 5.41

---

biological target: Polyunsaturated fatty acid lipoxygenase ALOX15 (Homo sapiens); experiment: Inhibition of thapsigargin-stimulated 15-LOX in human primary polymorphonuclear leukocytes using arachidonic acid as substrate preincubated for 5 mins followed by thapsigargin stimulation for 5 mins by RP-HPLC method
Sequence (P16050 whole entry): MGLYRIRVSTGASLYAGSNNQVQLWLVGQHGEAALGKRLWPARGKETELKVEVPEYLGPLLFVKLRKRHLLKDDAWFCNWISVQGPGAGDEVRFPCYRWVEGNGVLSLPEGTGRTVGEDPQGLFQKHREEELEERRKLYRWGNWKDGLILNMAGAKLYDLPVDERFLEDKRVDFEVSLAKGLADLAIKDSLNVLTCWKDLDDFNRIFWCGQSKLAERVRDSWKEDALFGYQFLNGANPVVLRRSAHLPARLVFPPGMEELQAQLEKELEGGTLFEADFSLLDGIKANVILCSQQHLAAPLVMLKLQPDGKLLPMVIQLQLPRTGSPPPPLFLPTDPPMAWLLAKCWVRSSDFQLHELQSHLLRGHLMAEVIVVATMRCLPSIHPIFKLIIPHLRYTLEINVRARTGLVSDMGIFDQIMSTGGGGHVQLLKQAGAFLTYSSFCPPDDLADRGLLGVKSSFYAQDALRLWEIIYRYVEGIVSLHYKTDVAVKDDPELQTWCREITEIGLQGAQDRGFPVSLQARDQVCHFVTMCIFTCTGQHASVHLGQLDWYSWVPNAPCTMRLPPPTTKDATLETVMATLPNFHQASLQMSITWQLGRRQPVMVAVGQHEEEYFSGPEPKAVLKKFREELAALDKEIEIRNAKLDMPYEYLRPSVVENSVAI
RECORDED_ENDPOINT: pIC50
Formally, pIC50 is defined as -log10 of the concentration c, with c in mol/L.

// query Report the value of pIC50 obtained on Polyunsaturated fatty acid lipoxygenase ALOX15 (Homo sapiens) for O=C(/C=C/c1ccc(O)c(O)c1)OCCc1ccccc1 .
// result 6.89

---

test system: Glycine max; assay: Inhibition of soybean 15-LOX at 10 uM using linoleic acid as substrate relative to control
RECORDED_ENDPOINT: inhibition (%)
# unit: % | format: bare number

See these solved cases before continuing.
{"CHEMICAL_STRING": "Cc1ccc(NNC(=O)c2ccccc2)cc1", "RECORDED_ENDPOINT": "inhibition", "ASSAY_RESULT": 93}
{"CHEMICAL_STRING": "O=C(NNc1ccc(Br)cc1)c1ccccc1", "RECORDED_ENDPOINT": "inhibition", "ASSAY_RESULT": 28}
{"CHEMICAL_STRING": "O=C(/N=N/c1ccc([N+](=O)[O-])cc1)c1ccccc1", "RECORDED_ENDPOINT": "inhibition", "ASSAY_RESULT": 34}

// query Report the value of inhibition obtained on Glycine max for COc1ccc(NNC(=O)c2ccccc2)cc1 .
// result 73

// query Report the value of inhibition obtained on Glycine max for N#Cc1ccc(NNC(=O)c2ccccc2)cc1 .
// result 9

// query Report the value of inhibition obtained on Glycine max for O=C(/N=N/c1ccc(Br)cc1)c1ccccc1 .
// result 44

// query Report the value of inhibition obtained on Glycine max for NS(=O)(=O)c1ccc(NNC(=O)c2ccccc2)cc1 .
// result 10

// query Report the value of inhibition obtained on Glycine max for O=C(/N=N/c1ccccc1)c1ccccc1 .
// result 87

---

tested on: Glycine max; experiment: Inhibition of soybean 15-LOX at 10 uM using linoleic acid as substrate relative to control
Listed here are compounds together with their documented inhibition.
# unit: % | format: bare number

See these solved cases before continuing.
{"CHEMICAL_STRING": "O=C(NNc1ccccc1)c1ccccc1", "ASSAY_RESULT": 33}
{"CHEMICAL_STRING": "O=C(NNc1ccc([N+](=O)[O-])cc1)c1ccccc1", "ASSAY_RESULT": 17}
{"CHEMICAL_STRING": "N#Cc1ccc(/N=N/C(=O)c2ccccc2)cc1", "ASSAY_RESULT": 80}
{"CHEMICAL_STRING": "COc1ccc(/N=N/C(=O)c2ccccc2)cc1", "ASSAY_RESULT": 19}

Turning now to a further compound:
// query Read the entry Cc1ccc(/N=N/C(=O)c2ccccc2)cc1 and write its reported inhibition.
// result 44
